Test system: 128128-338-R-J1-PDC spheroids, viability % test/control
run.description: Anticancer human tumor 128128-338-R-J1-PDC patient-derived melanoma cell line growth inhibition [TAK]
condition.description: second compound 3 µM; first compound 0.000316 µM; hits give low values; spheroids with HUVEC and MSC
Quick reference for viability, T/C among some molecules
I only need the number, in %, no unit after it.

[[record]]
molecule = "CC(C)n1nc(-c2ccc3oc(N)nc3c2)c2c(N)ncnc21 + CC(C)NCC(C(=O)N1CCN(c2ncnc3c2C(C)CC3O)CC1)c1ccc(Cl)cc1"
numeric_value = 88.5


Look at this molecule and give its reported viability, T/C. CC(C)CC(NC(=O)C(Cc1ccccc1)NC(=O)c1cnccn1)B(O)O (centres undefined) + CC(C)NCC(C(=O)N1CCN(c2ncnc3c2C(C)CC3O)CC1)c1ccc(Cl)cc1
90.9

Look at this molecule and give its reported viability, T/C. CC(C)CC(NC(=O)CNC(=O)c1cc(Cl)ccc1Cl)B1OC(=O)CC(CC(=O)O)(C(=O)O)O1 (centres undefined) + CC(C)NCC(C(=O)N1CCN(c2ncnc3c2C(C)CC3O)CC1)c1ccc(Cl)cc1
85.3

Look at this molecule and give its reported viability, T/C. COC1CC2CCC(C)C(O)(O2)C(=O)C(=O)N2CCCCC2C(=O)OC(C(C)CC2CCC(OCCO)C(OC)C2)CC(=O)C(C)C=C(C)C(O)C(OC)C(=O)C(C)CC(C)C=CC=CC=C1C (centres undefined) + CC(C)NCC(C(=O)N1CCN(c2ncnc3c2C(C)CC3O)CC1)c1ccc(Cl)cc1
88

----------
Quick reference for viability, T/C among some compounds
System: 128128-338-R-J1-PDC spheroids, viability % test/control
run.description: Anticancer human tumor 128128-338-R-J1-PDC cell line growth inhibition [TAK];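 note: spheroids exposed to compounds for 7 days; 100% = DMSO vehicle wells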
condition.description: second compound 30 µM; first compound 0.0316 µM; hits give low values; spheroids with HUVEC and MSC
I only need the number, in %, no unit after it.

Observe how each entry below is paired with its result.
[[record]]
compound = "COc1c(OCCCN2CCOCC2)ccc2c3n(c(=NC(=O)c4cnc(N)nc4)nc12)CCN3 + CC(C)NCC(C(=O)N1CCN(c2ncnc3c2C(C)CC3O)CC1)c1ccc(Cl)cc1"
numeric_value = 13.6

[[record]]
compound = "COC1CC2CCC(C)C(O)(O2)C(=O)C(=O)N2CCCCC2C(=O)OC(C(C)CC2CCC(OCCO)C(OC)C2)CC(=O)C(C)C=C(C)C(O)C(OC)C(=O)C(C)CC(C)C=CC=CC=C1C (stereo unspecified) + CC(C)NCC(C(=O)N1CCN(c2ncnc3c2C(C)CC3O)CC1)c1ccc(Cl)cc1"
numeric_value = 2.3

[[record]]
compound = "Cc1nc(NC(=O)N2CCCC2C(N)=O)sc1-c1ccnc(C(C)(C)C(F)(F)F)c1 (stereo unspecified) + CC(C)NCC(C(=O)N1CCN(c2ncnc3c2C(C)CC3O)CC1)c1ccc(Cl)cc1"
numeric_value = 24.1

[[record]]
compound = "CC(C)n1nc(-c2ccc3oc(N)nc3c2)c2c(N)ncnc21 + CC(C)NCC(C(=O)N1CCN(c2ncnc3c2C(C)CC3O)CC1)c1ccc(Cl)cc1"
numeric_value = 0.38

[[record]]
compound = "CC(C)(C)c1nc(-c2cccc(NS(=O)(=O)c3c(F)cccc3F)c2F)c(-c2ccnc(N)n2)s1 + CC(C)NCC(C(=O)N1CCN(c2ncnc3c2C(C)CC3O)CC1)c1ccc(Cl)cc1"
numeric_value = 0.69


# get_value(readout= viability, T/C, system= 128128-338-R-J1-PDC spheroids, viability % test/control) for CC(C)CC(NC(=O)CNC(=O)c1cc(Cl)ccc1Cl)B1OC(=O)CC(CC(=O)O)(C(=O)O)O1 (stereo unspecified) + CC(C)NCC(C(=O)N1CCN(c2ncnc3c2C(C)CC3O)CC1)c1ccc(Cl)cc1
0.13
